Test: Human HepG2 cell viability assay in 384 well format
Assay type: toxicity, cell-based
Design: dose 125 nL, time 70.5 hour; concentration not given beside the values
Conditions: HepG2 cells, read-out: Inhibition
Class YES: cytotoxicity at 70.5 h at least -20%. Class NO: cytotoxicity at 70.5 h below -20%.

## Task Is the recorded value of cytotoxicity at 70.5 h equal to or greater than -20% for this compound? CN(Cc1nnc(C2CC2)n1C)S(=O)(=O)c1ccc(F)c(C#N)c1
## Result NO

Let us examine a further case.
## Task Is the recorded value of cytotoxicity at 70.5 h equal to or greater than -20% for this compound? CS(=O)(=O)CCN1CCC(=Cc2ccccc2)CC1
## Result YES
